Biological target: UniProtKB P35520
Sequence (P35520 whole entry): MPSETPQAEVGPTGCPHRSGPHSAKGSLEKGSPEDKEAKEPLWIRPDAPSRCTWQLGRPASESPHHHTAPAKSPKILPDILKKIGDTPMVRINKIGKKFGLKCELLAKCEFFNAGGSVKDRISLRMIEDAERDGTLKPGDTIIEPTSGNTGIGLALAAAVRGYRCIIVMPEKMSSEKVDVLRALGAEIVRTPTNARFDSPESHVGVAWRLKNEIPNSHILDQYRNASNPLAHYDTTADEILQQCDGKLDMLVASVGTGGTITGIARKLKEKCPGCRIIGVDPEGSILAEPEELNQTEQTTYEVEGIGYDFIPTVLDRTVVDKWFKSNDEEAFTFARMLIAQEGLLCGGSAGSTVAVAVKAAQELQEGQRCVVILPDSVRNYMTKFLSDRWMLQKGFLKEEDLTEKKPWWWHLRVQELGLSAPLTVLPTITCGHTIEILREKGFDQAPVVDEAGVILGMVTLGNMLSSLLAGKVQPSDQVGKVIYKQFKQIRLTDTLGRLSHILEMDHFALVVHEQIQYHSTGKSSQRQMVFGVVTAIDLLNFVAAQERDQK
Experiment: Inhibition of full-length wild-type cystathionine beta-synthase (unknown origin) assessed as inhibition of H2S production by fluorescence assay in presence of S-adenosylmethionine
pIC50: −log10 of the molar value.
Readout type: pIC50

Some compounds with recorded pIC50:
Compound | Readout type | Test value
C[C@@]12CCC(=O)c3coc(c31)C(=O)c1cc3cccc(OS(=O)(=O)O)c3cc12 | pIC50 | 3.87
O=C1NC(=S)N/C1=C\c1ccc(O)c(O)c1 | pIC50 | 3.90
COc1cc(/C=C2\NC(=S)NC2=O)ccc1O | pIC50 | 3.73
O=C1C=C(c2cc(Br)c(O)c(Br)c2)/C(=C/c2cc(Br)c(O)c(Br)c2)O1 [RUBROLIDE A] | pIC50 | 3.97
O=C1NC(=S)N/C1=C\c1ccccc1 | pIC50 | 3.77
COc1cc(/C=C2\NC(=S)NC2=O)ccc1OC(C)=O | pIC50 | 4.08

I: COc1cc(/C=C2\N=C(SC)N(C)C2=O)ccc1O
II: NC(=O)c1cc(Br)c(Br)[nH]1
Request: # return whichever of I and II has the smaller pIC50 Mark your selection by writing its label.
Response: II
(II: 3.81, I: 4.06)
